// provenance: patent US11739098B2

biological target: human TLR7 (Homo sapiens); test: TLR7 inhibition reporter assay (HEK-Blue cells, SEAP reporter, gardiquimod stimulation); settings: HEK-Blue cells overexpressing human TLR7, SEAP reporter, gardiquimod 7.5 μM
Sequence (Q9NYK1 27-1049): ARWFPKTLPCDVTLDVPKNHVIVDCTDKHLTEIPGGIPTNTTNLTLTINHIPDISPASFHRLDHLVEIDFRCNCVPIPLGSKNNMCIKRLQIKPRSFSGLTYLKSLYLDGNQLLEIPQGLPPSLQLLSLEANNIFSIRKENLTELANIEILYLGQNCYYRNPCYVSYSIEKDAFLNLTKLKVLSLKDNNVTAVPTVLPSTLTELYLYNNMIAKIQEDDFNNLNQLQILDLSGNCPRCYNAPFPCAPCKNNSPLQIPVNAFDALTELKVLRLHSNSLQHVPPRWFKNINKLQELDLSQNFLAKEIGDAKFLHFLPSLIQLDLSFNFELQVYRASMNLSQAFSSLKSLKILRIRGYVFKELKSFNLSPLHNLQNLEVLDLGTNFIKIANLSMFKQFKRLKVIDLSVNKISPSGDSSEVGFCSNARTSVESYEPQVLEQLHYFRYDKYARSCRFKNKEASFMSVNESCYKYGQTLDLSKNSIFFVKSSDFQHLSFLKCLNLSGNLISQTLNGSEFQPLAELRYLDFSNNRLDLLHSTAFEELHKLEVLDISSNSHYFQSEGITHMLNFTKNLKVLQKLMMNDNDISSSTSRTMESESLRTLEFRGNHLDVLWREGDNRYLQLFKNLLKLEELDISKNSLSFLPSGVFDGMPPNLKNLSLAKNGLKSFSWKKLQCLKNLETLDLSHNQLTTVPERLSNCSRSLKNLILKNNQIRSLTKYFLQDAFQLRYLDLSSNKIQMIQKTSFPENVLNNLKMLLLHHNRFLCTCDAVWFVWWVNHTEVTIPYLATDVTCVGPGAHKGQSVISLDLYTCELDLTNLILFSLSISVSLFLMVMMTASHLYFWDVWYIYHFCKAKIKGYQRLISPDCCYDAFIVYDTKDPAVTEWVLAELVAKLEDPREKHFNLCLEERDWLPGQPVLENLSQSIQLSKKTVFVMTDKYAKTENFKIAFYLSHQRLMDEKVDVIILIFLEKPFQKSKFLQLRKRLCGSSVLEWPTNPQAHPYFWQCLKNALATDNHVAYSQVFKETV
pIC50: −log10 of the molar value.
MEASURED_METRIC: pIC50

These solved cases illustrate the format of a correct answer.
MOLECULE: CNC(=O)CN1CCC(c2ccc3[nH]c(-c4cc(C)c5nc(C)c(C)n5c4)c(C(C)C)c3c2)CC1 [Example 429]
pIC50: > 7.00

MOLECULE: CC(C)c1c(-c2ccnc3[nH]ncc23)[nH]c2ccc(C3CCN(CCCN4CCOCC4)CC3)cc12 [Example 857]
pIC50: 4.30 to 6.00

MOLECULE: COc1c(C)c(-c2[nH]c3ccc(C4CCN(C5COC5)CC4)cc3c2C(C)C)nn2ncnc12 [Example 731]
pIC50: > 7.00

MOLECULE: Cc1c(-c2ccnc3c2ccn3C)[nH]c2ccc(C3CCN(C4CCN(CC(C)C)CC4)CC3)cc12 [Example 843]
pIC50: 4.30 to 6.00

MOLECULE: CNC(=O)CN1CCC(c2ccc3[nH]c(-c4ccc5nc(C)cn5c4)c(CC(F)F)c3c2)CC1 [Example 417]
pIC50: > 7.00

MOLECULE: Cc1c(-c2[nH]c3ccc(C4CCNCC4)cc3c2C(C)C)cn2ccnc2c1C(C)C [Example 273]
pIC50: > 7.00

// next item, pIC50 requested
Query string: Please give the measured pIC50 for this molecule: CC(C)c1c(-c2cn(C)c3ncccc23)[nH]c2ccc(C3CCN(C(=O)CN(C)C)CC3)cc12 [Example 463]
Result string: > 7.00

====

biological target: human TLR8 (Homo sapiens, UniProt Q9NR97); assay: TLR8 inhibition reporter assay (HEK-Blue cells, SEAP reporter, R848 stimulation); settings: HEK-Blue cells overexpressing human TLR8, SEAP reporter, R848 15.9 μM
pIC50: −log10 of the molar value.
MEASURED_METRIC: pIC50

COMPOUND: CC(C)c1c(-c2ccc3occc3c2)[nH]c2ccc(C3CCNCC3)cc12
pIC50: 6.00 to 7.00

COMPOUND: CC(C)c1c(-c2ccc3ncoc3c2)[nH]c2ccc(C3CCN(CC(=O)N(C)C)CC3)cc12
pIC50: > 7.00

Query string: Kindly state the measured pIC50 obtained for CC(C)c1c(-c2ccnc3[nH]ncc23)[nH]c2ccc(C3CCN(C(=O)CN4CCCN(C)CC4)CC3)cc12 with human TLR8 (Homo sapiens, UniProt Q9NR97).
Result string: > 7.00

Query string: Also check CC(=O)N1CCCN(CC(=O)N2CCC(c3ccc4[nH]c(-c5ccnc6[nH]ncc56)c(C(C)C)c4c3)CC2)CC1
Result string: > 7.00

====

Target: human TLR8 (Homo sapiens, UniProt Q9NR97)
Sequence (Q9NR97 27-1041): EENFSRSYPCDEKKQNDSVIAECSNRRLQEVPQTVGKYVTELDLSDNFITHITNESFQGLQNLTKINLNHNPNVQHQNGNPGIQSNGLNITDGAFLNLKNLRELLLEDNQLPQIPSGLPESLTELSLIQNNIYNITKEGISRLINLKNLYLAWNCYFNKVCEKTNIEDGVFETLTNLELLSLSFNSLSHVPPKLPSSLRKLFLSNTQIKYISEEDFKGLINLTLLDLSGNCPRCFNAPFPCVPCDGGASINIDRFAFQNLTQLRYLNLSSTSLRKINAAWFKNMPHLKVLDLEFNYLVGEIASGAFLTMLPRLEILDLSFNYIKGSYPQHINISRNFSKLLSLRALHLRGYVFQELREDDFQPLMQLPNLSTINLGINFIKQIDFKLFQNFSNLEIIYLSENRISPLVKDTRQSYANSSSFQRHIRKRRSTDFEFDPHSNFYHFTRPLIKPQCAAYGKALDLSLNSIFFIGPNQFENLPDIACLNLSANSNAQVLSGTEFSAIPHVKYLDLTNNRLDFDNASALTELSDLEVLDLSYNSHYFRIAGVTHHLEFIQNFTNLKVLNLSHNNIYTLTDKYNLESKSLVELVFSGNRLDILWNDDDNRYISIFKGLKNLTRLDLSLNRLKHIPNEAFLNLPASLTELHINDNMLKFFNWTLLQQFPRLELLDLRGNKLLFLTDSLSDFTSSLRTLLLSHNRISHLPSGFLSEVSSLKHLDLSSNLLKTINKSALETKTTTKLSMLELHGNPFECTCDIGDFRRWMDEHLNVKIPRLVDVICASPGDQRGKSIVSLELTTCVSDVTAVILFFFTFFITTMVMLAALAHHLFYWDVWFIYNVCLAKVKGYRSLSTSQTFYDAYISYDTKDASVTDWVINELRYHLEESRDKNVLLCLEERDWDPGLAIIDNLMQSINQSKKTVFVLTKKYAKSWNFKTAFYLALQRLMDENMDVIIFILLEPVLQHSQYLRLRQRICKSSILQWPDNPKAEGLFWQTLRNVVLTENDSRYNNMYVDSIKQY
Test: TLR8 inhibition reporter assay (HEK-Blue cells, SEAP reporter, R848 stimulation)
Details: HEK-Blue cells overexpressing human TLR8, SEAP reporter, R848 15.9 μM
In this section, each of the compounds is paired with its reported IC50.

COMPOUND: Cc1nc2cc(-c3[nH]c4ccc(C5CCN(C(=O)CN(C)C)CC5)cc4c3C(C)C)cc(C)c2o1 [Example 491]
RECORDED_RESULT: 1 to 50 µM

Query string: Could you tell me which IC50 is on file for COc1cc(-c2[nH]c3ccc(C4CCN(CC(=O)N(C)C)CC4)cc3c2C(C)C)cc2nc(C)nn12 [Example 348] ?
Result string: < 0.1 µM

Query string: Also check CC(C)c1c(-c2ccnc3[nH]ncc23)[nH]c2ccc(C3CCN(C(=O)C4CCCNC4)CC3)cc12 (stereo not shown) [Example 636]
Result string: < 0.1 µM

Query string: COc1cc(-c2[nH]c3ccc(C4CCN(CC(=O)N(C)C)CC4)cc3c2C(C)C)cc2nc(C)cn12 [Example 334] ?
Result string: 0.1 to 1 µM

====

Overview of reported IC50 across a group of compounds:
Target: human TLR8 (Homo sapiens)
Assay: TLR8 inhibition reporter assay (HEK-Blue cells, SEAP reporter, R848 stimulation)
Conditions: HEK-Blue cells overexpressing human TLR8, SEAP reporter, R848 15.9 μM
Text: TLR7/8/9 Inhibition Reporter Assays HEK-Blue™-cells (Invivogen) overexpressing human TLR7, TLR8 or TLR9 receptors were used for screening inhibitors of these receptors using an inducible SEAP (secreted embryonic alkaline phosphatase) reporter gene under the control of the IFN-β minimal promoter fused to five NF-κB and AP-1-binding sites. […]

Check out these entries, answers already filled in.
COMPOUND: Cc1cc(-c2[nH]c3ccc(C4CCN(C(=O)CN(C)C)CC4)cc3c2C(C)C)cn2cc(C(=O)N(C)CCO)nc12
IC50: < 100 nM
//
COMPOUND: CC(C)c1c(-c2ccc3ncnn3n2)[nH]c2ccc(C3CCN(C4CCOCC4)CC3)cc12
IC50: < 100 nM
//
COMPOUND: CC(C)c1c(-c2ccc3nccn3c2)[nH]c2ccc(C3CCN(C(=O)[C@H]4CCCNC4)CC3)cc12
IC50: 100 to 1000 nM
//
COMPOUND: CCc1c(-c2ccnc3cnn(C)c23)[nH]c2ccc(C3CCNCC3)cc12
IC50: 100 to 1000 nM
//
COMPOUND: Cc1c(-c2[nH]c3ccc(C4CCNCC4)cc3c2C(C)C)c2cccnc2n1C
IC50: < 100 nM

Query string: Form: Entry = CCc1c(-c2ccnc3[nH]ncc23)[nH]c2ccc(C3CCNCC3)c(C)c12 | System = human TLR8 (Homo sapiens) | IC50 = ____
Result string: 1000 to 50000 nM

Query string: Again, but for Cc1cc(-c2[nH]c3ccc(C4CCN(C5COC5)CC4)cc3c2C(C)C)c2ccccc2n1
Result string: 100 to 1000 nM

Query string: Next: Cc1cc2cc(-c3[nH]c4ccc(C5CCN(CC(=O)N(C)C)CC5)cc4c3C(C)C)cc(C)n2n1
Result string: < 100 nM

Query string: Okay, and Cc1c(-c2ncc3cc[nH]c3n2)[nH]c2ccc(C3CCN(C4CCN(C(C)C)CC4)CC3)cc12 ?
Result string: 1000 to 50000 nM

Query string: Item: CC(=O)N[C@H]1CCN(CC(=O)N2CCC(c3ccc4[nH]c(-c5ccnc6[nH]ncc56)c(C(C)C)c4c3)CC2)C1
Result string: < 100 nM

Query string: Similarly, COc1nc(-c2[nH]c3ccc(C4CCNCC4)cc3c2C(C)C)cn2ncnc12 ?
Result string: > 3130 nM

Query string: What would you report for CC(C)c1c(-c2c[nH]c3ccncc23)[nH]c2ccc(C3CCNCC3)cc12 ?
Result string: > 3130 nM

Query string: Item: Cc1c(-c2ccnc3c2ccn3C)[nH]c2ccc(C3CCN(C4CCN(C(C)C)CC4)CC3)cc12
Result string: < 100 nM

Query string: Let us now turn to Cc1cc(-c2[nH]c3ccc(C4CCN(C5CCOCC5)CC4)cc3c2C(C)C)cc2cccnc12 [Example 704]
Result string: 100 to 1000 nM
